Entries and their FACS binding (KMS11)
Target: T1, Human syndecan-1 (CD138) on the cell surface (human, UniProt P18827 23-310)
T1 construct: Endogenous on H929, KMS-11 and RT112/84 cells or transfected into Expi293 cells; also called human CD138; hCD138
T1 sequence: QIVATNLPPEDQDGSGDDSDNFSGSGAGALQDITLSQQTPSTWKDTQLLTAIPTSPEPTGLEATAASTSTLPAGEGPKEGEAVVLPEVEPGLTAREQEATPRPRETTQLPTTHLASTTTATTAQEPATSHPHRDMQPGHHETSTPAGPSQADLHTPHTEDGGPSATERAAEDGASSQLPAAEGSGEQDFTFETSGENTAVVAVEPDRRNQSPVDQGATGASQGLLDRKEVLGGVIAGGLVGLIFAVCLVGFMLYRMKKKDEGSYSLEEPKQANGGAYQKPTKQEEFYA
Experiment: summary table; repeats the EC50 (nM) of Table 20, unit not given

[
  {
    "Binder": "F6 f1kf-rep (antibody, V domains shown, Humanized F12P16F6 expressed as whole antibody with human constant regions (kappa light chain)) VH: QVQLQQSGAEVVKPGASVKLSCKASGYTFTSYYLYWVKKAPGQGLDWIGEIYPRSGGTNINEKFLSRVTLTADTSTSTAYMDLSSLTSEDTAVYYCTRSLLYWGQGTTLTVSS VL: DVVMTQSPLSLSVTLGQPASISCKSSQSLLASDGKTYLNWLQQRPGQSPRRLIYLVSKLDSGVPNRFSGSGSGTDFTLQISRVEAEDVGLYYCWQGAHFPFTFGSGTKLEIKR",
    "FACS binding (KMS11)": 0.94
  },
  {
    "Binder": "F6 ckf-rep (antibody, V domains shown, Humanized F12P16F6 expressed as whole antibody with human constant regions (kappa light chain)) VH: QVQLVQSGAEVVKPGASVKLSCKASGYTFTSYYLYWVKKAPGQGLDWIGEIYPRSGGTNINEKFLSRVTLTADTSTSTAYLELSSLTSEDTAVYYCTRSLLYWGQGTTLTVSS VL: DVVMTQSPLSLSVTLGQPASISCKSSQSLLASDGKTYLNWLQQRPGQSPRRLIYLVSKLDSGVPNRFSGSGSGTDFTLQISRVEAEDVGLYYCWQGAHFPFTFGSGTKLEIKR",
    "FACS binding (KMS11)": 1.64
  },
  {
    "Binder": "F6 f2kf-rep (antibody, V domains shown, Humanized F12P16F6 expressed as whole antibody with human constant regions (kappa light chain)) VH: QVQLQQSGAEVVKPGASVKLSCKASGYTFTSYYLYWVKKAPGQGLDWIGEIYPRSGGTNINEKFLSRVTITADESTSTVYMQLSSLTSEDSAVYYCTRSLLYWGQGTTLTVSS VL: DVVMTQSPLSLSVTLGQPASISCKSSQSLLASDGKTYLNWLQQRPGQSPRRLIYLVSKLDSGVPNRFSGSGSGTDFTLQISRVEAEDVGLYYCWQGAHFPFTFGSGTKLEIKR",
    "FACS binding (KMS11)": 1.81
  }
]
